target: MaxL homodimer (Homo sapiens, UniProt P61244 1-160); assay: universal protein-binding microarray (PBM); PBS-based mixture, 10 nM His-tagged protein dimer, 2% milk, 200 ng/uL BSA, 50 ng/uL salmon testes DNA, 0.02% TX-100; detection with Alexa 488 anti-His antibody;; high values mean tight binding; conditions: protein: recombinant; tags: C-terminal His-tag (pET21a); chain copies: 2; dsDNA, one strand shown;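 further: fluorescence intensity normalized to that of the highest-ranked 8-mer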
Sequence (P61244 whole entry): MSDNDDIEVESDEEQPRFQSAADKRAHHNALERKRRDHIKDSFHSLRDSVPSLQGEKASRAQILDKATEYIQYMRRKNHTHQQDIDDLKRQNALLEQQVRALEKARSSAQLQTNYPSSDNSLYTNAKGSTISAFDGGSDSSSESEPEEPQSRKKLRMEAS
Whole data set: some 33,000 sequences, median “normalized occupancy” near 0.075, cut for the highest 2% near 0.095. Many of the other results were omitted from the sample, so the highest values are more common in it than they were.
Label Yes when binding signal is at or above 0.08 normalized occupancy; otherwise label No.

Query: State whether the measured binding signal reaches 0.08 normalized occupancy, counting equality as reaching it, for ATAGCGTG
Result: Yes

Query: State whether the measured binding signal reaches 0.08 normalized occupancy, counting equality as reaching it, for AAAGCATG
Result: Yes

Query: State whether the measured binding signal reaches 0.08 normalized occupancy, counting equality as reaching it, for CAAGCATA
Result: No

Query: State whether the measured binding signal reaches 0.08 normalized occupancy, counting equality as reaching it, for ACAGCGAG
Result: No

Query: State whether the measured binding signal reaches 0.08 normalized occupancy, counting equality as reaching it, for AGAGCGAG
Result: No

Query: State whether the measured binding signal reaches 0.08 normalized occupancy, counting equality as reaching it, for AGAGCGTG
Result: Yes

###

target: MaxL homodimer (Homo sapiens, UniProt P61244 1-160); assay: universal protein-binding microarray (PBM); PBS-based mixture, 10 nM His-tagged protein dimer, 2% milk, 200 ng/uL BSA, 50 ng/uL salmon testes DNA, 0.02% TX-100; detection with Alexa 488 anti-His antibody;; high values mean tight binding; conditions: protein: recombinant; tags: C-terminal His-tag (pET21a); chain copies: 2; dsDNA, one strand shown;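 further: fluorescence intensity normalized to that of the highest-ranked 8-mer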
In all, about 33,000 sequences were measured (“normalized occupancy”: median about 0.075, highest 2% from about 0.095 on). Shown is part of a subset that was picked to be rich in the highest values.
Label yes when binding signal is at or above 0.09 normalized occupancy; otherwise label no.

Query: State whether the measured binding signal reaches 0.09 normalized occupancy, counting equality as reaching it, for AATGTTAC
Result: no

Query: State whether the measured binding signal reaches 0.09 normalized occupancy, counting equality as reaching it, for ACATGTCG
Result: yes

Query: State whether the measured binding signal reaches 0.09 normalized occupancy, counting equality as reaching it, for GGCATGTA
Result: no

Query: State whether the measured binding signal reaches 0.09 normalized occupancy, counting equality as reaching it, for AGTATGTC
Result: no

Query: State whether the measured binding signal reaches 0.09 normalized occupancy, counting equality as reaching it, for CGCGTGTA
Result: yes

Query: State whether the measured binding signal reaches 0.09 normalized occupancy, counting equality as reaching it, for CTCTCGAA
Result: no

Query: State whether the measured binding signal reaches 0.09 normalized occupancy, counting equality as reaching it, for AGACGTTC
Result: no

Query: State whether the measured binding signal reaches 0.09 normalized occupancy, counting equality as reaching it, for AAGTGGCT
Result: no

Query: State whether the measured binding signal reaches 0.09 normalized occupancy, counting equality as reaching it, for CGGACGCA
Result: no

Query: State whether the measured binding signal reaches 0.09 normalized occupancy, counting equality as reaching it, for ATACGTTC
Result: no

Query: State whether the measured binding signal reaches 0.09 normalized occupancy, counting equality as reaching it, for GCACATGC
Result: yes

Query: State whether the measured binding signal reaches 0.09 normalized occupancy, counting equality as reaching it, for CTTTTGGA
Result: no

Query: State whether the measured binding signal reaches 0.09 normalized occupancy, counting equality as reaching it, for ACACGTCG
Result: no

Query: State whether the measured binding signal reaches 0.09 normalized occupancy, counting equality as reaching it, for ACACGTTG
Result: yes

Query: State whether the measured binding signal reaches 0.09 normalized occupancy, counting equality as reaching it, for ACCTAAGT
Result: no

Query: State whether the measured binding signal reaches 0.09 normalized occupancy, counting equality as reaching it, for ATGAGCGG
Result: no

Query: State whether the measured binding signal reaches 0.09 normalized occupancy, counting equality as reaching it, for GCACATGA
Result: yes

Query: State whether the measured binding signal reaches 0.09 normalized occupancy, counting equality as reaching it, for AGTGTGTA
Result: no

Query: State whether the measured binding signal reaches 0.09 normalized occupancy, counting equality as reaching it, for CTGCACGA
Result: no

Query: State whether the measured binding signal reaches 0.09 normalized occupancy, counting equality as reaching it, for AGCATGTC
Result: yes

Query: State whether the measured binding signal reaches 0.09 normalized occupancy, counting equality as reaching it, for CTGACTAA
Result: no

Query: State whether the measured binding signal reaches 0.09 normalized occupancy, counting equality as reaching it, for CCTATTAA
Result: no

Query: State whether the measured binding signal reaches 0.09 normalized occupancy, counting equality as reaching it, for CTCACTTC
Result: no

Query: State whether the measured binding signal reaches 0.09 normalized occupancy, counting equality as reaching it, for ACATGCTA
Result: yes

Query: State whether the measured binding signal reaches 0.09 normalized occupancy, counting equality as reaching it, for AGCGTATG
Result: no

Query: State whether the measured binding signal reaches 0.09 normalized occupancy, counting equality as reaching it, for CGCATGTC
Result: yes

Query: State whether the measured binding signal reaches 0.09 normalized occupancy, counting equality as reaching it, for CTGCCTAA
Result: no

Query: State whether the measured binding signal reaches 0.09 normalized occupancy, counting equality as reaching it, for ACATGTAA
Result: yes

Query: State whether the measured binding signal reaches 0.09 normalized occupancy, counting equality as reaching it, for CAACCCAC
Result: no

Query: State whether the measured binding signal reaches 0.09 normalized occupancy, counting equality as reaching it, for ACCGTACA
Result: no

Query: State whether the measured binding signal reaches 0.09 normalized occupancy, counting equality as reaching it, for ACACATCA
Result: no

Query: State whether the measured binding signal reaches 0.09 normalized occupancy, counting equality as reaching it, for CCGAGTGC
Result: no

Query: State whether the measured binding signal reaches 0.09 normalized occupancy, counting equality as reaching it, for CCTCCTCC
Result: no

Query: State whether the measured binding signal reaches 0.09 normalized occupancy, counting equality as reaching it, for GCATGCTA
Result: yes

Query: State whether the measured binding signal reaches 0.09 normalized occupancy, counting equality as reaching it, for TAACTGCA
Result: no

Query: State whether the measured binding signal reaches 0.09 normalized occupancy, counting equality as reaching it, for GGACATGA
Result: no

Query: State whether the measured binding signal reaches 0.09 normalized occupancy, counting equality as reaching it, for ACATGTAG
Result: yes

Query: State whether the measured binding signal reaches 0.09 normalized occupancy, counting equality as reaching it, for ACTGCCCC
Result: no

Query: State whether the measured binding signal reaches 0.09 normalized occupancy, counting equality as reaching it, for AAACAAAG
Result: no

Query: State whether the measured binding signal reaches 0.09 normalized occupancy, counting equality as reaching it, for CGCATTTC
Result: no

Query: State whether the measured binding signal reaches 0.09 normalized occupancy, counting equality as reaching it, for CCATGTAG
Result: no

Query: State whether the measured binding signal reaches 0.09 normalized occupancy, counting equality as reaching it, for ATGACAGC
Result: no

Query: State whether the measured binding signal reaches 0.09 normalized occupancy, counting equality as reaching it, for ACATGCTG
Result: yes

Query: State whether the measured binding signal reaches 0.09 normalized occupancy, counting equality as reaching it, for AAACGTTG
Result: no

Query: State whether the measured binding signal reaches 0.09 normalized occupancy, counting equality as reaching it, for GCGTGGCA
Result: yes

Query: State whether the measured binding signal reaches 0.09 normalized occupancy, counting equality as reaching it, for GACGAGAC
Result: no

Query: State whether the measured binding signal reaches 0.09 normalized occupancy, counting equality as reaching it, for ACGTGGCC
Result: yes

Query: State whether the measured binding signal reaches 0.09 normalized occupancy, counting equality as reaching it, for AAATGTAG
Result: no

Query: State whether the measured binding signal reaches 0.09 normalized occupancy, counting equality as reaching it, for AGCATGTA
Result: yes

Query: State whether the measured binding signal reaches 0.09 normalized occupancy, counting equality as reaching it, for TCATGTAA
Result: yes

Query: State whether the measured binding signal reaches 0.09 normalized occupancy, counting equality as reaching it, for AGGATGTG
Result: no

Query: State whether the measured binding signal reaches 0.09 normalized occupancy, counting equality as reaching it, for AACATCTC
Result: no

Query: State whether the measured binding signal reaches 0.09 normalized occupancy, counting equality as reaching it, for ACACGTTA
Result: yes

Query: State whether the measured binding signal reaches 0.09 normalized occupancy, counting equality as reaching it, for ACACATAA
Result: no

Query: State whether the measured binding signal reaches 0.09 normalized occupancy, counting equality as reaching it, for TAAATAAA
Result: no

Query: State whether the measured binding signal reaches 0.09 normalized occupancy, counting equality as reaching it, for TCAAATAA
Result: no

Query: State whether the measured binding signal reaches 0.09 normalized occupancy, counting equality as reaching it, for TCACATGA
Result: yes

Query: State whether the measured binding signal reaches 0.09 normalized occupancy, counting equality as reaching it, for AAACGTTA
Result: no

Query: State whether the measured binding signal reaches 0.09 normalized occupancy, counting equality as reaching it, for AGACGTTA
Result: no

Query: State whether the measured binding signal reaches 0.09 normalized occupancy, counting equality as reaching it, for TCGTGGCA
Result: no

Query: State whether the measured binding signal reaches 0.09 normalized occupancy, counting equality as reaching it, for AAAACGAT
Result: no

Query: State whether the measured binding signal reaches 0.09 normalized occupancy, counting equality as reaching it, for CGCGTGTC
Result: yes

Query: State whether the measured binding signal reaches 0.09 normalized occupancy, counting equality as reaching it, for AAGCACGC
Result: yes

Query: State whether the measured binding signal reaches 0.09 normalized occupancy, counting equality as reaching it, for CTTCTATC
Result: no

Query: State whether the measured binding signal reaches 0.09 normalized occupancy, counting equality as reaching it, for GTCATGAC
Result: no

Query: State whether the measured binding signal reaches 0.09 normalized occupancy, counting equality as reaching it, for AAATGACC
Result: no

Query: State whether the measured binding signal reaches 0.09 normalized occupancy, counting equality as reaching it, for CGCATCTC
Result: no

The origin of these recorded values is paper PMC4242493.
